# MEASUREMENT_TARGET: UniProt P10599
# Sequence (P10599 2-105): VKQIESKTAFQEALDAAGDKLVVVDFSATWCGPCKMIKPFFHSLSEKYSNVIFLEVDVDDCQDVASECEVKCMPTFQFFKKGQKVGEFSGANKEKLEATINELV
pIC50: −log10 of the molar value.
MEASURE: pIC50

>  <CHEM_SMILES>
O=C1C=CC(O)(c2nc3ccccc3s2)C=C1

>  <MEASURE>
pIC50

>  <NUMERIC_VALUE>
4.70

$$$$
